ASSAY_NOTES: in vivo
CONDITION_PARAMETERS: rat, iv
MEASURE: NOAEL at 14 days (mg/kg)
Unit mg/kg implied. Number only.

NOAEL at 14 days reading for Cc1ccc(Nc2nccc(N(C)c3ccc4c(C)n(C)nc4c3)n2)cc1S(N)(=O)=O : 10

---

ASSAY_NOTES: Clinical pharmacokinetics of pazopanib
Assay type: in vivo
CONDITION_PARAMETERS: in vivo; human, IV 20 mg/subject, extrapolated; read-out: Cmax, assuming dose-linearity
MEASURE: Cmax (ng/mL)
Unit ng/mL implied. Number only.

Cmax reading for Cc1ccc(Nc2nccc(N(C)c3ccc4c(C)n(C)nc4c3)n2)cc1S(N)(=O)=O : 3400

---

ASSAY_NOTES: in vivo
CONDITION_PARAMETERS: male, rat, iv, 10 mg/kg/day
MEASURE: Cmax

Cmax reading for Cc1ccc(Nc2nccc(N(C)c3ccc4c(C)n(C)nc4c3)n2)cc1S(N)(=O)=O : 55 µg/mL

---

ASSAY_NOTES: in vivo
CONDITION_PARAMETERS: male, rat, iv, 10 mg/kg/day
MEASURE: AUC(0-inf) (µg·h/mL)
Unit µg·h/mL implied. Number only.

AUC(0-inf) reading for Cc1ccc(Nc2nccc(N(C)c3ccc4c(C)n(C)nc4c3)n2)cc1S(N)(=O)=O : 278

---

ASSAY_NOTES: in vivo
CONDITION_PARAMETERS: monkey, iv, NOAEL, 14 days, IV 20 minute infusion
MEASURE: NOAEL at 14 days (mg/kg)
Unit mg/kg implied. Number only.

NOAEL at 14 days reading for Cc1ccc(Nc2nccc(N(C)c3ccc4c(C)n(C)nc4c3)n2)cc1S(N)(=O)=O : 10

---

ASSAY_NOTES: in vivo
CONDITION_PARAMETERS: female, monkey, iv, 10 mg/kg/day
MEASURE: Cmax (µg/mL)
Unit µg/mL implied. Number only.

Cmax reading for Cc1ccc(Nc2nccc(N(C)c3ccc4c(C)n(C)nc4c3)n2)cc1S(N)(=O)=O [pazopanib] : 80
